- experimental protocol: Cytotoxicity against human MRC5 cells assessed as reduction in cell viability after 72 hrs by MTT assay
- Format: cell-based
Examples of molecules with documented log10 GI50 at 72 h follow.
experimental readout: log10 GI50 at 72 h (log10 of the value in µM)

molecule: Cl.N[C@@H](Cc1ccccc1)CN(CCc1ccccc1)C(=O)/C=C/c1ccccc1
log10 GI50 at 72 h: 0.81

molecule: CC(C)(C)OC(=O)NCCN(CCc1c[nH]c2ccccc12)C(=O)/C=C/c1ccccc1
log10 GI50 at 72 h: 1.55

molecule: CC(C)[C@@H](CN(CCc1c[nH]c2ccccc12)C(=O)/C=C/c1ccccc1)NC(=O)OC(C)(C)C
log10 GI50 at 72 h: 1.64

molecule: Cl.N[C@@H](Cc1ccccc1)CN(CCc1c[nH]c2ccccc12)C(=O)/C=C/c1ccccc1
log10 GI50 at 72 h: 0.80

molecule: Cl.NCCN(CCc1c[nH]c2ccccc12)C(=O)/C=C/c1ccccc1
log10 GI50 at 72 h: 1.32

molecule: CC(C)[C@H](N)CN(CCc1c[nH]c2ccccc12)C(=O)/C=C/c1ccccc1.Cl
log10 GI50 at 72 h: 1.40

molecule: CC(C)(C)OC(=O)N[C@@H](Cc1ccccc1)CN(CCc1ccccc1)C(=O)/C=C/c1ccccc1
log10 GI50 at 72 h: 1.24

molecule: CC(C)(C)OC(=O)N[C@@H](Cc1ccccc1)CN(CCc1c[nH]c2ccccc12)C(=O)/C=C/c1ccccc1
log10 GI50 at 72 h: 1.85

molecule: COC(=O)[C@H]1[C@H]2C[C@@H]3c4[nH]c5cc(OC)ccc5c4CCN3C[C@H]2C[C@@H](OC(=O)c2cc(OC)c(OC)c(OC)c2)[C@@H]1OC [RESERPINE]
log10 GI50 at 72 h: 1.17

molecule: CC(C)[C@H](N)CN(CCc1ccccc1)C(=O)/C=C/c1ccccc1.Cl
log10 GI50 at 72 h: 1.72

molecule: Cl.NCCN(CCc1ccccc1)C(=O)/C=C/c1ccccc1
log10 GI50 at 72 h: 1.87

molecule: CC(C)(C)OC(=O)NCCN(CCc1ccccc1)C(=O)/C=C/c1ccccc1
log10 GI50 at 72 h: 1.74

molecule: CC(C)[C@@H](CN(CCc1ccccc1)C(=O)/C=C/c1ccccc1)NC(=O)OC(C)(C)C
log10 GI50 at 72 h: 1.61
